Provenance of the data: patent US11975040B2

# maps each entry to its pKd
- Study Target: T1, human Plexin B1 (human, UniProt O43157 20-535, limits assumed)
- T1 sequence (looked up): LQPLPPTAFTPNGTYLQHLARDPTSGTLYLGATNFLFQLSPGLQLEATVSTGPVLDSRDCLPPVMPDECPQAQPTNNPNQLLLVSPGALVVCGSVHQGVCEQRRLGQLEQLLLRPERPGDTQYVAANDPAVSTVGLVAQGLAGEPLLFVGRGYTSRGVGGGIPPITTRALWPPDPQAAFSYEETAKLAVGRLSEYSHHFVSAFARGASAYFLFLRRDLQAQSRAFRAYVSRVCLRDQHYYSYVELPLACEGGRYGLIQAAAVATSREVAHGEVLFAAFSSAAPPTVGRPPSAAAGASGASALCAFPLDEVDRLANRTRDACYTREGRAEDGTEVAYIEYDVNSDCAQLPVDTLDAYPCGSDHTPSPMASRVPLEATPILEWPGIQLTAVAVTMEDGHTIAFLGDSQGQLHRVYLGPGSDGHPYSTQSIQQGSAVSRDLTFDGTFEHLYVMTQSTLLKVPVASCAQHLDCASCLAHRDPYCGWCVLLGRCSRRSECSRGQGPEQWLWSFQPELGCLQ
- Test Summary: SPR
pKd: −log10 of the molar value. Positions of bridges follow the written chain, without caps; N, C: chain ends. Non-standard residues stand in square brackets, D forms with d. No end group written: not given here.

Binder | pKd
{CH2CO}-[dW]RPRVARWTGQIIYCS (thioether N-15) [SEQ ID NO 30] | 8.46
{CH2CO}-[dW]NGTLSWQTYSHLCS (thioether N-14) [SEQ ID NO 39] | 6.16
{CH2CO}-[dW]NSNVLSWQTYSWYCS (thioether N-15) [SEQ ID NO 38] | 6.56
